All values here come from ChEMBL document CHEMBL1122874.

System: Staphylococcus aureus
Test: Antibacterial activity against penicillin G sensitive Staphylococcus aureus V41
Type: functional
measuredEndpoint: MIC (µg/mL)
Please state the figure in µg/mL; there is no need to write the unit.

Consider the following illustrative entries.
compound | MIC (µg/mL)
COc1ccc2c([C@@H](N)C(=O)NC3C(=O)N4C(C(=O)O)=C(C)CSC34)csc2c1 (stereo partly specified) | 8
CC1=C(C(=O)O)N2C(=O)C(NC(=O)[C@@H](N)c3cc4c(Cl)cccc4s3)C2SC1 (stereo partly specified) | 4
CC1=C(C(=O)O)N2C(=O)C(NC(=O)[C@@H](N)c3cc4cc(Cl)ccc4s3)C2SC1 (stereo partly specified) | 8
CC1=C(C(=O)O)N2C(=O)C(NC(=O)[C@H](N)c3ccc4cccc(Cl)c4c3)C2SC1 (stereo partly specified) | 1
CC1=C(C(=O)O)N2C(=O)C(NC(=O)[C@H](N)c3csc4ccc(Cl)cc34)C2SC1 (stereo partly specified) | 4

Which MIC value is on record for CC1=C(C(=O)O)N2C(=O)C(NC(=O)[C@H](N)c3csc4ccc(F)cc34)C2SC1 (stereo partly specified) ? 8

Which MIC value is on record for CC1=C(C(=O)O)N2C(=O)C(NC(=O)[C@@H](N)c3cc4c(s3)CCCC4)C2SC1 (stereo partly specified) ? 16

Which MIC value is on record for CC1=C(C(=O)O)N2C(=O)C(NC(=O)[C@H](N)c3csc4cc(Cl)c(Cl)cc34)C2SC1 (stereo partly specified) ? 8

Which MIC value is on record for CC1=C(C(=O)O)N2C(=O)C(NC(=O)[C@H](N)c3ccc4ccccc4c3)C2SC1 (stereo partly specified) ? 8

Which MIC value is on record for COc1ccc2cc([C@@H](N)C(=O)NC3C(=O)N4C(C(=O)O)=C(C)CSC34)ccc2c1 (stereo partly specified) ? 16

Which MIC value is on record for CC1=C(C(=O)O)N2C(=O)C(NC(=O)[C@H](N)c3csc4cc(Cl)ccc34)C2SC1 (stereo partly specified) ? 8

====

Here, each record is paired with measured MIC data.
System: Haemophilus influenzae
Experiment: Antibacterial activity against sensitive Haemophilus influenzae C.L.
Assay type: functional
Please state the figure in µg/mL; there is no need to write the unit.

Consider the following illustrative entries.
molecule | assayTarget | unitOfMeasure | MIC
COc1ccc2c([C@@H](N)C(=O)NC3C(=O)N4C(C(=O)O)=C(C)CSC34)csc2c1 (stereo partly drawn) | Haemophilus influenzae | µg/mL | 32
CC1=C(C(=O)O)N2C(=O)C(NC(=O)[C@H](N)c3ccc4cc(Cl)ccc4c3)C2SC1 (stereo partly drawn) | Haemophilus influenzae | µg/mL | 32
CC1=C(C(=O)O)N2C(=O)C(NC(=O)[C@H](N)c3csc4cccc(F)c34)C2SC1 (stereo partly drawn) | Haemophilus influenzae | µg/mL | 16
CC1=C(C(=O)O)N2C(=O)C(NC(=O)[C@H](N)c3csc4c(F)cccc34)C2SC1 (stereo partly drawn) | Haemophilus influenzae | µg/mL | 4
COc1ccc2cc([C@@H](N)C(=O)NC3C(=O)N4C(C(=O)O)=C(C)CSC34)ccc2c1 (stereo partly drawn) | Haemophilus influenzae | µg/mL | 16

Which MIC value is on record for CC1=C(C(=O)O)N2C(=O)C(NC(=O)[C@H](N)c3csc4cc(Cl)c(Cl)cc34)C2SC1 (stereo partly drawn) ? 4

Which MIC value is on record for CC1=C(C(=O)O)N2C(=O)C(NC(=O)[C@@H](N)c3cc4cc(Cl)ccc4s3)C2SC1 (stereo partly drawn) ? 64

Which MIC value is on record for CC1=C(C(=O)O)N2C(=O)C(NC(=O)[C@H](N)c3ccc4ccccc4c3)C2SC1 (stereo partly drawn) ? 8

Which MIC value is on record for CC1=C(C(=O)O)N2C(=O)C(NC(=O)[C@H](N)c3csc4cc(Cl)ccc34)C2SC1 (stereo partly drawn) ? 8

Which MIC value is on record for CC1=C(C(=O)O)N2C(=O)C(NC(=O)[C@@H](N)c3cc4ccccc4s3)C2SC1 (stereo partly drawn) ? 32

Which MIC value is on record for CC1=C(C(=O)O)N2C(=O)C(NC(=O)[C@@H](N)c3cc4c(s3)CCCC4)C2SC1 (stereo partly drawn) ? 16

Which MIC value is on record for CC1=C(C(=O)O)N2C(=O)C(NC(=O)[C@@H](N)c3cc4c(Cl)cccc4s3)C2SC1 (stereo partly drawn) ? 32

Which MIC value is on record for CC1=C(C(=O)O)N2C(=O)C(NC(=O)[C@H](N)c3cccc4ccccc34)C2SC1 (stereo partly drawn) ? 8
